# run-description: self-splicing fitness, log relative to wild type (ln ratio); higher = more splicing; Tetrahymena group I intron in knt gene, E. coli kanamycin selection, DiMSum; sequences stand for … in CUCUCU…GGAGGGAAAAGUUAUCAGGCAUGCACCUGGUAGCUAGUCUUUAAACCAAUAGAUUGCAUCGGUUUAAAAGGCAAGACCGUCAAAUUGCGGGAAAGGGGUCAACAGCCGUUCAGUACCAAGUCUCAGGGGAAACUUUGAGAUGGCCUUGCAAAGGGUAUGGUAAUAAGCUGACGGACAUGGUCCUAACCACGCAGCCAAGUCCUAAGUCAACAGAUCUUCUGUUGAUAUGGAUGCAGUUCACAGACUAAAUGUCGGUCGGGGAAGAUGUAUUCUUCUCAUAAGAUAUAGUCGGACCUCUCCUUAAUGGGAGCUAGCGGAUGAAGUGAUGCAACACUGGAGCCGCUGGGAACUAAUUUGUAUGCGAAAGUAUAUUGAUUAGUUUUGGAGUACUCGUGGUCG;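 also: selection with 25 µg/mL kanamycin versus none on LB agar overnight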
# particulars: 37 °C
Categorized via self-splicing fitness (ln): low end = under -2, middle = from -2 up to -0.8, high end = -0.8 and over

[
  {
    "residue-string": "GUACAGCAAUAUUACGUGGG",
    "class-name": "low end"
  },
  {
    "residue-string": "CCGCAGCAAUAUUACGUCCA",
    "class-name": "high end"
  },
  {
    "residue-string": "CGCAAGCAAUAUUACGAUUU",
    "class-name": "low end"
  },
  {
    "residue-string": "UCUCAGCAAUAUUACGUCUG",
    "class-name": "low end"
  },
  {
    "residue-string": "UGUUAGCAAUAUUACGGGUG",
    "class-name": "high end"
  },
  {
    "residue-string": "GGUCAGCAAUAUUACGCCCA",
    "class-name": "high end"
  },
  {
    "residue-string": "ACUUAGCAAUAUUACGAUCG",
    "class-name": "middle"
  },
  {
    "residue-string": "CGUAAGCAAUAUUACGAGUA",
    "class-name": "middle"
  },
  {
    "residue-string": "ACCGAGCAAUAUUACGGUAA",
    "class-name": "middle"
  },
  {
    "residue-string": "ACCUAGCAAUAUUACGCGGU",
    "class-name": "low end"
  },
  {
    "residue-string": "UCACAGCAAUAUUACGCACA",
    "class-name": "high end"
  },
  {
    "residue-string": "UCUUAGCAAUAUUACGCUUG",
    "class-name": "middle"
  },
  {
    "residue-string": "UUCCAGCAAUAUUACGGUGU",
    "class-name": "middle"
  },
  {
    "residue-string": "CCACAGCAAUAUUACGGGGU",
    "class-name": "low end"
  },
  {
    "residue-string": "UGGUAGCAAUAUUACGUUCA",
    "class-name": "high end"
  },
  {
    "residue-string": "GCUCAGCAAUAUUACGUUAA",
    "class-name": "middle"
  },
  {
    "residue-string": "CAGUAGCAAUAUUACGAUUG",
    "class-name": "high end"
  },
  {
    "residue-string": "CUGCAGCAAUAUUACGGUCG",
    "class-name": "high end"
  },
  {
    "residue-string": "CAGGAGCAAUAUUACGGUCA",
    "class-name": "middle"
  },
  {
    "residue-string": "GUCAAGCAAUAUUACGAUAG",
    "class-name": "low end"
  },
  {
    "residue-string": "GUAUAGCAAUAUUACGGCAA",
    "class-name": "high end"
  },
  {
    "residue-string": "CCUAAGCAAUAUUACGAUAC",
    "class-name": "low end"
  },
  {
    "residue-string": "UAAUAGCAAUAUUACGCGAG",
    "class-name": "middle"
  },
  {
    "residue-string": "CUUUAGCAAUAUUACGGGUC",
    "class-name": "middle"
  },
  {
    "residue-string": "UAUCAGCAAUAUUACGGUCG",
    "class-name": "high end"
  },
  {
    "residue-string": "CACGAGCAAUAUUACGCCUA",
    "class-name": "low end"
  },
  {
    "residue-string": "GACGAGCAAUAUUACGGUUC",
    "class-name": "low end"
  },
  {
    "residue-string": "UUUCAGCAAUAUUACGGGAG",
    "class-name": "high end"
  },
  {
    "residue-string": "CUGUAGCAAUAUUACGGGCG",
    "class-name": "high end"
  },
  {
    "residue-string": "UUACAGCAAUAUUACGGAAA",
    "class-name": "high end"
  },
  {
    "residue-string": "GUCCAGCAAUAUUACGCAGA",
    "class-name": "middle"
  },
  {
    "residue-string": "AUGCAGCAAUAUUACGGAGC",
    "class-name": "low end"
  },
  {
    "residue-string": "GAGGAGCAAUAUUACGCAGG",
    "class-name": "low end"
  },
  {
    "residue-string": "UAGGAGCAAUAUUACGUAAC",
    "class-name": "low end"
  },
  {
    "residue-string": "UACCAGCAAUAUUACGUCUG",
    "class-name": "low end"
  },
  {
    "residue-string": "CGGCAGCAAUAUUACGCUUG",
    "class-name": "low end"
  },
  {
    "residue-string": "UGUGAGCAAUAUUACGUCUA",
    "class-name": "middle"
  },
  {
    "residue-string": "AUGCAGCAAUAUUACGGGUU",
    "class-name": "middle"
  },
  {
    "residue-string": "CUGUAGCAAUAUUACGACAC",
    "class-name": "low end"
  },
  {
    "residue-string": "ACGCAGCAAUAUUACGUUCG",
    "class-name": "high end"
  },
  {
    "residue-string": "CCGAAGCAAUAUUACGGAUU",
    "class-name": "low end"
  },
  {
    "residue-string": "UUACAGCAAUAUUACGUGUU",
    "class-name": "low end"
  },
  {
    "residue-string": "AAUUAGCAAUAUUACGGUUC",
    "class-name": "low end"
  },
  {
    "residue-string": "CCGGAGCAAUAUUACGAACU",
    "class-name": "high end"
  },
  {
    "residue-string": "ACGAAGCAAUAUUACGCGCA",
    "class-name": "high end"
  },
  {
    "residue-string": "GAUAAGCAAUAUUACGAGCA",
    "class-name": "middle"
  },
  {
    "residue-string": "UCCAAGCAAUAUUACGUCGU",
    "class-name": "high end"
  },
  {
    "residue-string": "CCCAAGCAAUAUUACGCCGU",
    "class-name": "low end"
  },
  {
    "residue-string": "CGUUAGCAAUAUUACGCGAA",
    "class-name": "low end"
  },
  {
    "residue-string": "AAGUAGCAAUAUUACGACGG",
    "class-name": "middle"
  },
  {
    "residue-string": "GCGCAGCAAUAUUACGAAGG",
    "class-name": "high end"
  },
  {
    "residue-string": "UGUAAGCAAUAUUACGUUUC",
    "class-name": "low end"
  },
  {
    "residue-string": "GAUGAGCAAUAUUACGAGUG",
    "class-name": "middle"
  },
  {
    "residue-string": "CAUGAGCAAUAUUACGUCGC",
    "class-name": "low end"
  },
  {
    "residue-string": "CCAUAGCAAUAUUACGAGUG",
    "class-name": "high end"
  },
  {
    "residue-string": "GAAAAGCAAUAUUACGUUAC",
    "class-name": "middle"
  },
  {
    "residue-string": "ACUAAGCAAUAUUACGGUUC",
    "class-name": "middle"
  },
  {
    "residue-string": "CUCUAGCAAUAUUACGGUAC",
    "class-name": "low end"
  },
  {
    "residue-string": "GCUGAGCAAUAUUACGGCCG",
    "class-name": "low end"
  },
  {
    "residue-string": "UGGAAGCAAUAUUACGUCGU",
    "class-name": "low end"
  },
  {
    "residue-string": "GCAUAGCAAUAUUACGUACC",
    "class-name": "high end"
  },
  {
    "residue-string": "AAUAAGCAAUAUUACGUGAU",
    "class-name": "middle"
  },
  {
    "residue-string": "GAAAAGCAAUAUUACGCCCG",
    "class-name": "high end"
  },
  {
    "residue-string": "UAGAAGCAAUAUUACGAUGG",
    "class-name": "middle"
  },
  {
    "residue-string": "UCACAGCAAUAUUACGCUUC",
    "class-name": "low end"
  }
]
